The reported measurements were obtained from PubChem BioAssay (NCI).

- Tested on: TK-10 renal
- procedure_details: NCI tumour cell line growth inhibition, 48 h
endpoint_name: TGI (µM)

C/C(=N\Nc1nc2cc(C(F)(F)F)ccc2s1)c1ccccn1 | 17.3
COc1ccc2cc(CNCCCCCCNCc3ccc4cc(OC)ccc4c3)ccc2c1 | 3.28
c1ccc(-c2nc(N3CCOCC3)c3c4c(sc3n2)CCCCCC4)nc1 | 25.5
COc1cc(C2C3=C(COC3=O)Oc3cc4c(cc32)OCO4)cc(OC)c1O (centres undefined) | 63.8
COc1cc2c(cc1OCCCCCCN1CCN(CC(=O)Nc3ccc(Cl)cc3C(=O)c3ccccc3Cl)CC1)N=CC1CCCN1C2=O (centres undefined) | 1.17
Cc1ccc(S(=O)(=O)c2nc(-c3ccccc3)oc2S(C)=O)cc1 (centres undefined) | 2.79
O=C(c1cccs1)N1CCN(C(=O)c2cccs2)C1=S | 19
